# Assay system: human LPA5 (Homo sapiens, UniProt Q9H1C0)
# Sequence (Q9H1C0 whole entry): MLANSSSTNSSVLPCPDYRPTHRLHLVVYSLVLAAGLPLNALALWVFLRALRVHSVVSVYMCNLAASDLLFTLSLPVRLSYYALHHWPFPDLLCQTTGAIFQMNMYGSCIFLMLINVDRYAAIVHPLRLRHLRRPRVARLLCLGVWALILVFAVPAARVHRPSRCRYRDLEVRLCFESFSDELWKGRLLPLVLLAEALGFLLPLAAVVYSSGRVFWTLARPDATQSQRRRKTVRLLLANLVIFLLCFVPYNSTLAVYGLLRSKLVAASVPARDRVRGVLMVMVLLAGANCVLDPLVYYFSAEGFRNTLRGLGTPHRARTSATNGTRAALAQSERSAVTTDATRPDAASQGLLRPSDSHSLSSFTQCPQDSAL
# Measurement description: Ca2+ mobilization assay, LPA5 expressed in RH7777 cells
# Type: cell-based
# Recorded conditions: read-out: LPA5 agonist EC50; Ca2+ mobilization; NS = non-saturated
Reported endpoint: EC50 (µM)

{"Compound": "CCCCCCCCCCCCCCCC(=O)OCC(O)CC(Br)P(=O)(O)O (stereo not drawn) [compound 1, palmitoyl α-bromomethylenephosphonate]", "Quantitative result": 1.28}

* * *

# Assay system: human LPA5 (Homo sapiens, UniProt Q9H1C0)

{"Structure as smiles": "CCCCCCCCCCCCCCCC(=O)OC[C@@H](O)C[C@H](Br)P(=O)(O)O", "Value unit": "nM", "Ki": 376}
